Field: melting point. Provide a value for each of the molecules that follow.
Could you give me the number in °C? Just the number is fine.

Enquiry: What melting point value was documented for this molecule, N#Cc1cnn2c(C(F)(F)F)cc(-c3cccnc3)nc12 ?
Return: 193

Enquiry: Given the molecule CCOc1cc(-c2cc(C(F)(F)F)n3ncc(-c4ccnc(C)c4)c3n2)ccc1C(F)(F)F , what is its reported melting point?
Return: 226

Enquiry: Which melting point value is on record for N#Cc1cnn2c(C(F)(F)F)cc(-c3ccccc3F)nc12 ?
Return: 165

Enquiry: What value of melting point has been reported for the following molecule? Cc1cc(-c2ncn3c(C(F)(F)F)cc(-c4ccc(C(F)(F)F)c(OCC(F)(F)F)c4)nc23)ccn1
Return: 189

Enquiry: Return reported melting point; argument: N#Cc1ncn2c(C(F)(F)F)cc(-c3ccccn3)nc12
Return: 205

Enquiry: For the molecule shown here, Cc1cc(-c2cc(C(F)(F)F)n3ncc(-c4ccncc4)c3n2)ccc1Cl , give the reported melting point.
Return: 247

Enquiry: Fill blank: measured melting point of the molecule CCOc1cc(-c2cc(C(F)(F)F)n3ncc(-c4cc(C)nc(C)c4)c3n2)ccc1C(F)(F)F is ____.
Return: 257

Enquiry: Tell me the measured melting point of FC(F)(F)c1ccc(-c2cc(C(F)(F)F)n3ncc(-c4ccccn4)c3n2)cc1 , please.
Return: 202

====

Measured quantity: melting point (°C)
# unit: °C | format: bare number

Enquiry: Bench note: what melting point did Cc1cc(-c2cc(C(F)F)n3ncc(-c4ccncc4)c3n2)ccc1C(F)(F)F [Example 9.3] show?
Return: 236

Enquiry: Find the recorded melting point belonging to N#Cc1cnn2c(C(F)(F)F)cc(-c3cccc(C(F)(F)F)c3)nc12 [Example 1.6] and report it.
Return: 192

Enquiry: GET /values?readout=melting point&item= Cc1cc(-c2cnn3c(C(F)(F)F)cc(-c4ccc(F)c(Cl)c4)nc23)cc(C)n1 [Example 4.21]
Return: 271

Enquiry: Requested field: melting point. Item: N#Cc1cnn2c(C(F)(F)F)cc(-c3ccc(F)cc3)nc12 [Example 1.9]
Return: 198

Enquiry: What does the record list as melting point for Cc1cc(-c2cnn3c(C(F)(F)F)cc(-c4ccc(C(F)(F)F)c(C)c4)nc23)ccn1 [Example 4.39] ?
Return: 237

Enquiry: What value of melting point has been reported for the following compound? FC(F)(F)c1cccc(-c2cc(C(F)(F)F)n3ncc(-c4cccnc4)c3n2)c1 [Example 4.13]
Return: 171

Enquiry: Given the entry N#Cc1cnn2c(C(F)(F)F)cc(-c3ccc(F)c(Cl)c3)nc12 [Example 1.14] , report its measured melting point.
Return: 190

Enquiry: Name the reported melting point value associated with the compound Cc1cc(-c2cnn3c(C(F)(F)F)cc(-c4ccc(C(F)(F)F)c(F)c4)nc23)cc(C)n1 [Example 4.25]
Return: 245

Enquiry: So what does the record say about melting point for Cc1cc(-c2cnn3c(C(F)(F)F)cc(-c4ccc(C(F)(F)F)c(F)c4)nc23)ccn1 [Example 4.35] ?
Return: 250

Enquiry: Entry under review: FC(F)(F)c1ccc(-c2cc(C(F)(F)F)n3ncc(-c4ccncc4)c3n2)cc1 [Example 4.15] . Reported melting point?
Return: 261

Enquiry: Can you look up the measured melting point of Cc1cc(-c2cnn3c(C(F)(F)F)cc(-c4ccc(Cl)c(C)c4)nc23)cc(C)n1 [Example 4.20] for me?
Return: 254

Enquiry: # query: melting point of entry N#Cc1ncn2c(C(F)(F)F)cc(-c3ccc(OCC(F)(F)F)c(C(F)(F)F)c3)nc12 [Example 5.24]
Return: 189

Enquiry: Param item = Cc1cc(-c2ncn3c(C(F)(F)F)cc(-c4ccc(F)c(Cl)c4)nc23)ccn1 [Example 8.22] ; retrieve measured melting point.
Return: 255

Enquiry: # get_value(readout='melting point', item= N#Cc1cnn2c(C(F)(F)F)cc(-c3cccc(F)c3)nc12 [Example 1.8] )
Return: 199

Enquiry: Please report the recorded melting point for N#Cc1cnn2c(C(F)(F)F)cc(-c3ccc(Cl)cc3Cl)nc12 [Example 1.4] .
Return: 180

Enquiry: Which melting point is reported for this compound? Cc1nn2c(C(F)(F)F)cc(-c3ccc(Cl)cc3)nc2c1C#N [Example 2.3]
Return: 238

Enquiry: Request the reported melting point associated with Cc1cc(-c2cnn3c(C(F)(F)F)cc(-c4ccc(Br)cc4)nc23)cc(C)n1 [Example 4.57]
Return: 258

Enquiry: Any idea what melting point was measured for CCOc1ccc(-c2cc(C(F)(F)F)n3cnc(-c4ccncc4)c3n2)cc1C(F)(F)F [Example 8.17] ?
Return: 244

Enquiry: Data request, read-out melting point, for OCc1cc(-c2cnn3c(C(F)(F)F)cc(-c4ccc(Cl)c(Cl)c4)nc23)ccn1 [Example 6.4]
Return: 233

Every entry's value here was drawn from patent US7514443B2.
